Please go through the items and note down their AC50.
tested_system: Bile salt export pump (Homo sapiens, UniProt O95342); also: assay procedure not described here
Sequence (O95342 whole entry): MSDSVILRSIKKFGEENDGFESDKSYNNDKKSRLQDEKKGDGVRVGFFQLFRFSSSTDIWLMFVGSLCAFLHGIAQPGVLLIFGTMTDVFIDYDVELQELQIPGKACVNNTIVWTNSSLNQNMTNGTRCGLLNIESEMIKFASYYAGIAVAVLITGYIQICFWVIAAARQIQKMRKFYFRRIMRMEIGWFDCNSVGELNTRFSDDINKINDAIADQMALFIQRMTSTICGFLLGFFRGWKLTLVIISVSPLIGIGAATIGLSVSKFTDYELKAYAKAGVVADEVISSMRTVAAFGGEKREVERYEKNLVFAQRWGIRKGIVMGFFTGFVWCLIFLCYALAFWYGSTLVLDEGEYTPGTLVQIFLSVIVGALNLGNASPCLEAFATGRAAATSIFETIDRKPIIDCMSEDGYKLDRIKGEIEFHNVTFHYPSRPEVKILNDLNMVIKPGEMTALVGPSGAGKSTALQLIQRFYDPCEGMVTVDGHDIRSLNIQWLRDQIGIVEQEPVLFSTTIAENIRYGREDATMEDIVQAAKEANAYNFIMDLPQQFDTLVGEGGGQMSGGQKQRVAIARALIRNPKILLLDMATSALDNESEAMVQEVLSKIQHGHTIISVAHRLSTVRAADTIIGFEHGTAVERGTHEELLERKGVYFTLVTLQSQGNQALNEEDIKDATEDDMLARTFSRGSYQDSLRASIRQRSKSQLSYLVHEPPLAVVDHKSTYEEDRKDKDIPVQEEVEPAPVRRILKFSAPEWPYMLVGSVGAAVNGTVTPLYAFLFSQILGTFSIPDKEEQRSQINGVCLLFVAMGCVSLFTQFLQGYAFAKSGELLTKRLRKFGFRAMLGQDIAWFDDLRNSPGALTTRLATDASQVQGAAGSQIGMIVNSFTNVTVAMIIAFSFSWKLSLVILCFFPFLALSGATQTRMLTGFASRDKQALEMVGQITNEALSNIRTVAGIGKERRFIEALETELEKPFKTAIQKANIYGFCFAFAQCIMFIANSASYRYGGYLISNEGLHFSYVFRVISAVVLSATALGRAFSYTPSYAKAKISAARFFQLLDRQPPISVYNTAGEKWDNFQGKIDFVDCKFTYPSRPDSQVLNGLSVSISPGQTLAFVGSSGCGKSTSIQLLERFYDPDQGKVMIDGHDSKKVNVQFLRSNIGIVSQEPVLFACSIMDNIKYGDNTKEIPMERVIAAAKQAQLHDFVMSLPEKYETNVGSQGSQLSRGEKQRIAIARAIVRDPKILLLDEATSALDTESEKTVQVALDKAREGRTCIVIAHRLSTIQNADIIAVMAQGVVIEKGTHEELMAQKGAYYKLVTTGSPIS
Type: functional
Answers are plain numbers, in µM.

Guide cases for AC50, answers given:
compound	data_value
CCC(=O)O[C@]1(C(=O)CCl)[C@@H](C)C[C@H]2[C@@H]3CCC4=CC(=O)C=C[C@]4(C)[C@@]3(F)[C@@H](O)C[C@@]21C [CLOBETASOL PROPIONATE]	23
CC(C(=O)O)c1ccc2oc(-c3ccc(Cl)cc3)nc2c1 (centres undefined)	120
CC(C)Cc1ccc([C@H](C)C(=O)O)cc1	188
CC1(C)S[C@@H]2[C@H](NC(=O)C(C(=O)O)c3ccccc3)C(=O)N2[C@H]1C(=O)O (some centres undefined)	210

For every listed record, write down its AC50.
1. CC[C@@H](CO)NC(=O)[C@@H]1C=C2c3cccc4c3c(cn4C)C[C@H]2N(C)C1 [METHYSERGIDE]
2. CCOc1cc([C@@H](CS(C)(=O)=O)N2C(=O)c3cccc(NC(C)=O)c3C2=O)ccc1OC

[180, 139]
